Data origin: patent US4965259A

Tested on: mice
Measurement Protocol: Motility inhibiting activity (Dews equipment)
Format: in vivo
Stated Conditions: motility inhibition, p.o.
Where a name gives a salt, the structure may show the parent alone.
Catalogue of Therapeutical index LD50/ED50 readings, one per entry.
Form rule: numeric answer, no unit written next to it.

Molecule: CNC1=Nc2ccc(Cl)cc2C(c2ccccc2)=[N+]([O-])C1 [chlordiazepoxide]
Therapeutical index LD50/ED50: 10.3
--
Molecule: CC(CN(C)C)CN1c2ccccc2OCOc2ccc(Cl)cc21 (stereo not shown) [traboxopin]
Therapeutical index LD50/ED50: 10.8
--
Molecule: CNCC(C)CN1c2ccccc2OCOc2ccc(Cl)cc21 (stereo not shown) [Example 3, hydrochloride]
Therapeutical index LD50/ED50: 18.50

Q) Hello, I am looking for reported Therapeutical index LD50/ED50 with mice for CCCC(C)(COC(N)=O)COC(N)=O [meprobamate] . Could you help?
A) 4.1

====

Tested on: mice
Measurement Protocol: Motility inhibiting activity (Dews equipment)
Type: in vivo
Stated Conditions: Mus musculus, po, 0.5 h, interruptions of infrared beam within 30 minutes
Counter-ions that a name gives are not always drawn.
Measured Endpoint: ED50 (mg/kg)
Express it in mg/kg; write the number only.

Compound: CC(CN(C)C)CN1c2ccccc2OCOc2ccc(Cl)cc21 (stereo not shown)
ED50 / mg/kg: 25
--
Compound: CNCC(C)CN1c2ccccc2OCOc2ccc(Cl)cc21 (stereo not shown) [Example 3, hydrochloride]
ED50 / mg/kg: 27
--
Compound: CCCC(C)(COC(N)=O)COC(N)=O [meprobamate]
ED50 / mg/kg: 270

Let us move to another entry and its ED50.
Q) # get_value(readout='ED50', item= CNC1=Nc2ccc(Cl)cc2C(c2ccccc2)=[N+]([O-])C1 [chlordiazepoxide] )
A) 60

====

Measurement Protocol: Acute toxicity on white mice (LD50 p.o.)
Parameters: species or system strain CFLP, both sexes
Stated Conditions: mouse, in vivo, po; reference compounds, printed in Table II; read-out: LD50
Measured Endpoint: LD50 at 168 h (mg/kg)
Express it in mg/kg; write the number only.

Q) # get_value(readout='LD50 at 168 h', item= CC(CN(C)C)CN1c2ccccc2OCOc2ccc(Cl)cc21 (stereo not shown) )
A) 270

====

Tested on: tremor induced by tremorine
Measurement Protocol: Inhibition of tremor induced by tremorine on mice
Format: in vivo
Stated Conditions: tremorine tremor, p.o.
Protocol: The tests were carried out according to Everett [Science, 124, 79 (1956)]. Tremor was induced by tremorine [1,1'-(2-butynylene)-dipyrrolidine] administered intraperitoneally at a dosage of 20 mg/kg. The compounds to be examined were given perorally to the animals one hour prior to the administration of tremorine, and the tremor developed was evaluated 45 minutes after the administration of tremorine.
Where a name gives a salt, the structure may show the parent alone.
Catalogue of Therapeutical index LD50/ED50 readings, one per entry.
Form rule: numeric answer, no unit written next to it.

Compound: CC(C)NCCCN1c2ccccc2OCOc2ccc(Cl)cc21 [Example 2, maleate]
Quantitative Result: 134.6

Q) # get_value(readout='Therapeutical index LD50/ED50', item= CC(CN(C)C)CN1c2ccccc2OCOc2ccc(Cl)cc21 (stereo not shown) )
A) 10.8

Q) Likewise for CNCC(C)CN1c2ccccc2OCOc2ccc(Cl)cc21 (stereo not shown) [Example 3, hydrochloride] ?
A) 78.1

Q) Likewise for OC(CCN1CCCCC1)(c1ccccc1)C1CCCCC1 (stereo not shown) ?
A) 24.3
